assay: Pharmacokinetics of ketamine and its metabolite hydroxynorketamine in mouse serum, hippocampus and frontal cortex (noncompartmental analysis, LC-MS/MS); assay type: in vivo, C57BL/6J mice; settings: male, C57BL/6J, mouse, serum, ip, 10 mg/kg, serum; CRS + ZnD mice; ketamine 10 mg/kg i.p.; read-out: λz (converted)
quantity.measured: k el (s⁻¹)

molecule="CNC1(c2ccccc2Cl)CCCCC1=O (stereo not shown) [Ketamine, ketamine]" quantity_measured="k el" experimental_result=0.000317

###

test: Pharmacokinetics of ketamine and its metabolite hydroxynorketamine in mouse serum, hippocampus and frontal cortex (noncompartmental analysis, LC-MS/MS); type: in vivo, C57BL/6J mice; settings: male, C57BL/6J, mouse, hippocampus, ip, 10 mg/kg, hippocampus; CRS + ZnD mice; ketamine 10 mg/kg i.p.; read-out: λz (converted)
quantity.measured: k el (s⁻¹)

compound="CNC1(c2ccccc2Cl)CCCCC1=O (stereo not shown)" quantity_measured="k el" experimental_result=0.000267
